Origin of measurements: patent US20050267182A1

- EXPERIMENTAL_TARGET: FLT3 (Homo sapiens, UniProt P36888)
- Construct: FLT3(DKIN); made in house
- Sequence (P36888 610-943 limits assumed): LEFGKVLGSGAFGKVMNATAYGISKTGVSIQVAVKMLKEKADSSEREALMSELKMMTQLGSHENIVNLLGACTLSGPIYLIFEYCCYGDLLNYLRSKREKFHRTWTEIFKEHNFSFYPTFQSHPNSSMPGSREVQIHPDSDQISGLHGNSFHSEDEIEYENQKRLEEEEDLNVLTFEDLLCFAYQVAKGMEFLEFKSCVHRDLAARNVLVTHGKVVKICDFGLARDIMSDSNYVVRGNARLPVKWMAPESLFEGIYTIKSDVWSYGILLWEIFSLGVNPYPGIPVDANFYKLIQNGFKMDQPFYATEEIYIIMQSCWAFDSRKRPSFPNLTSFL
- TEST_PROTOCOL: Binding constant (Kd) measurement, phage-displayed kinase competition binding assay
- EXPERIMENTAL_CONTEXT: FLT3(JMminus) construct
PARAMETER_MEASURED: Binding Assay: FLT3(JMminus)

Example entries and their recorded answers appear below.
> print(dat)
                                   compound  assay.result
1  COc1cc(NC(=O)c2cn3nc(Cl)ccc3n2)ccc1NC(=O)Nc1cc(C(C)(C)C)on1 [Compound N171]           + +
2  COc1cc(NC(=O)CCC(=O)N2CCNC(=O)CC2)ccc1NC(=O)Nc1cc(C(C)(C)C)on1 [Compound N172]         + + +
3  CC(C)(C)c1cc(NC(=O)Nc2ccc(NC(=O)c3ccc(-n4cc(-c5ccncn5)cn4)cc3)cc2)no1 [Compound N76]         + + +
4  CC(C)(C)c1cc(NC(=O)Nc2ccc(NC(=O)c3nocc3C(C)(C)C)cc2)no1 [Compound N82]         + + +
5  C=N/C(=N\C)Oc1cccc(C(=O)Nc2ccc(NC(=O)Nc3cc(C(C)(C)C)on3)cc2)c1 [Compound N74]       + + + +

Query: Reported Binding Assay: FLT3(JMminus) for CC(C)(C)c1cc(NC(=O)Nc2ccc(NC(=O)c3csc(Cc4cccc(C(F)(F)F)c4)n3)cc2)no1 [Compound N180] : what is it?
Response: + + + +

Query: Reported Binding Assay: FLT3(JMminus) for CCOC(=O)c1cccc(C(=O)Nc2ccc(NC(=O)Nc3cc(C(C)(C)C)on3)cc2)n1 [Compound N164] : what is it?
Response: + + + +

Query: Reported Binding Assay: FLT3(JMminus) for CC(C)(C)c1cc(NC(=O)Nc2ccc(NC(=O)c3cccnc3C(=O)O)cc2)no1 [Compound N165] : what is it?
Response: + + +

Query: Reported Binding Assay: FLT3(JMminus) for Cc1cc(NC(=O)[C@](C)(O)CSc2ccc(F)cc2)ccc1NC(=O)Nc1cc(C(C)(C)C)on1 [Compound N170] : what is it?
Response: + + + +

* * *

- Test system: MV4,11 cells
- TEST_PROTOCOL: FLT3 assay using MV4,11 cells (cellular proliferation, MTS)
- Assay type: cell-based, human
- EXPERIMENTAL_CONTEXT: cell assay code CS0001
PARAMETER_MEASURED: Cell Assay: CS0001:IC50

Example entries and their recorded answers appear below.
> print(dat)
                                   compound  assay.result
1  Cc1ccc(-n2nc(C(C)(C)C)cc2NC(=O)Nc2ccc(OCCN3CCOC(CO)C3)c3ccccc23)cc1 (centres unmarked)         + + +
2  CSc1ncc(Br)c(C(=O)Nc2ccc(NC(=O)Nc3cc(C(C)(C)C)on3)cc2)n1       + + + +
3  CC(C)(C)c1csc(NC(=O)Nc2ccc(OCc3ccccc3)cc2)n1         + + +
4  CC(C)(C)c1cc(NC(=O)Nc2ccc(NC(=O)/C=C/c3ccccc3Cl)cc2)no1       + + + +
5  COc1cc(C(=O)Nc2ccc(NC(=O)Nc3cc(C(C)(C)C)on3)cc2)nc2ccccc12       + + + +
6  CC(C)(C)c1cc(NC(=O)Nc2ccc(NC(=O)c3cccnc3)cc2)co1         + + +
7  COC(=O)c1ccc(C(=O)Nc2ccc(NC(=O)Nc3cc(C(C)(C)C)on3)cc2)nc1 [Compound N113]       + + + +
8  CC(C)(C)c1cc(NC(=O)Nc2ccc(NC(=O)c3cc(Cl)cc(Cl)c3)cc2)no1         + + +

Query: Reported Cell Assay: CS0001:IC50 for CC(C)(C)c1cc(NC(=O)Nc2ccc(C(=O)Nc3ccc(OCC4CCC4)cc3)cc2)no1 : what is it?
Response: + + + +

Query: Reported Cell Assay: CS0001:IC50 for CC(C)CCOC(=O)c1nnsc1NC(=O)Nc1ccc(Br)cc1 : what is it?
Response: + +

Query: Reported Cell Assay: CS0001:IC50 for CC(C)(C)c1cc(NC(=O)Nc2ccc(NC(=O)c3cccc(F)n3)cc2)no1 : what is it?
Response: + + + +

Query: Reported Cell Assay: CS0001:IC50 for CC(C)(C)c1cc(NC(=O)Nc2ccc(NC(=O)c3ccccc3Cl)cc2)no1 : what is it?
Response: + + + +

Query: Reported Cell Assay: CS0001:IC50 for Cc1ccc(-c2nc(C(=O)Nc3ccc(NC(=O)Nc4cc(C(C)(C)C)on4)cc3)cs2)cc1 : what is it?
Response: + + +

Query: Reported Cell Assay: CS0001:IC50 for CCOc1ccc(NC(=O)Nc2cc(C(C)(C)C)on2)cc1 : what is it?
Response: + + + +

Query: Reported Cell Assay: CS0001:IC50 for CC(C)(C)c1cc(NC(=O)Nc2ccc(NC(=O)C3=Cc4cc(F)cc(S(C)(=O)=O)c4C3)cc2)no1 [Compound N58] : what is it?
Response: + + +

Query: Reported Cell Assay: CS0001:IC50 for CC(C)(C)c1cc(NC(=O)Nc2ccc(NC(=O)c3c[nH]c(=O)nc3-c3ccncc3)cc2)no1 : what is it?
Response: + +

Query: Reported Cell Assay: CS0001:IC50 for CC(C)(C)c1cc(NC(=O)Nc2ccc(CCc3ccc(N)cc3)cc2)no1 : what is it?
Response: + + + +

Query: Reported Cell Assay: CS0001:IC50 for CC(C)(C)c1cc(NC(=O)Nc2ccc(-c3nc(-c4cccc5ccccc45)no3)cc2)no1 : what is it?
Response: + + + +
